# Tested on: Bjab BL cell line
# assay_protocol: alamarBlue cell viability assay
# Assay type: cell-based
# assay_conditions: Homo sapiens, 24 h, read-out: % Viable Cells Remaining Bjab 24 h 10 µM
Measured viability at 10 µM, listed per entry for reference.
Dear colleague, please return just the value in %, with no unit written.

Examples with answers:
C/C(=C\c1ccc(Cl)cc1)[N+](=O)[O-] [Compound 11i]: 50.8
C/C(=C\c1ccccc1Cl)[N+](=O)[O-] [Compound 11g]: 51.9
CC(=O)O[C@H]1C(=O)[C@@]2(C)[C@H]([C@H](OC(=O)c3ccccc3)[C@]3(O)C[C@H](OC(=O)[C@H](O)[C@@H](NC(=O)c4ccccc4)c4ccccc4)C(C)=C1C3(C)C)[C@]1(OC(C)=O)CO[C@@H]1C[C@@H]2O [Taxol, taxol, reference compound]: 80.2
C/C(=C\c1cccc(Cl)c1)[N+](=O)[O-] [Compound 11h]: 46.2

Pending compound:
IN: Tell me its viability at 10 µM given CC/C(=C\c1ccccc1Cl)[N+](=O)[O-] [Compound 11j] as the entry.
OUT: 68.9

----------
# System: PGA-1 CLL cell line
# assay_protocol: alamarBlue cell viability assay
# assay_conditions: 10 µM, 24 h
Measured % Viability PGA-1, listed per entry for reference.
Dear colleague, please return just the value in %, with no unit written.

Examples with answers:
CC/C(=C\c1ccccc1F)[N+](=O)[O-] [Compound 11d]: 0.02
CC/C(=C\c1ccccc1Cl)[N+](=O)[O-] [Compound 11j]: 0.53

Pending molecule:
IN: Tell me its % Viability PGA-1 given CC/C(=C\c1cccc(Cl)c1)[N+](=O)[O-] [Compound 11k] as the entry.
OUT: 4.34

----------
# Tested on: DG-75 Burkitt’s lymphoma cell line
# assay_protocol: alamarBlue cell viability assay
# assay_conditions: Homo sapiens, DG-75, 48 h, read-out: % Viable Cells Remaining DG-75, 10 µM, 48 h
Measured viability at 10 µM, listed per entry for reference.
Dear colleague, please return just the value in %, with no unit written.

N/N=C/c1c2ccccc2c(Cl)c2ccccc12 [Compound 32b]: 100
CNCCCC12CCC(c3ccccc31)c1ccccc12 [Maprotiline, maprotiline, reference compound]: 65
O=[N+]([O-])/C=C/c1cc2ccccc2c2ccccc12 [Compound 21, (E)-9-(2-Nitrovinyl)phenanthrene]: 60

Pending compound:
IN: Tell me its viability at 10 µM given N#C/C=C/c1c2ccccc2cc2ccccc12 [Compound 23c] as the entry.
OUT: 82

----------
# Tested on: PGA-1 CLL cells
# assay_protocol: Annexin V/PI apoptotic assay (FACS)
# Type: cell-based
# assay_conditions: PGA-1, 10 μM, 48 h
Rule: total apoptosis below 80% gives TRUE. Equal to or above 80% gives FALSE.

Observe how each entry below is paired with its result.
O=[N+]([O-])/C=C/c1c2ccccc2cc2ccccc12 [Compound 19a, (E)-9-(2-nitrovinyl)anthracene]: FALSE
COc1c2ccccc2c(/C=C/[N+](=O)[O-])c2ccccc12 [Compound 19g]: TRUE

# evaluate next
IN: is_below(total apoptosis, 80%) for CC(C)c1c2ccccc2c(/C=C/[N+](=O)[O-])c2ccccc12 [Compound 19m] ?
OUT: TRUE

----------
# assay_protocol: physchem
# Format: physicochemical
# assay_conditions: buffer, pH 4
# Protocol: A preliminary HPLC stability study was performed on a representative nitrovinylanthracene compound 19m (isopropyl) in various biologically relevant pH systems (acidic pH 4 found in the stomach, basic pH 9 found in the intestine and pH 7.4 in the plasma). […] Based on the results of this stability study, the compound 19m was determined to be suitable for further preclinical investigation.
observation_type: remaining at 24 h

IN: Tell me its remaining at 24 h given CC(C)c1c2ccccc2c(/C=C/[N+](=O)[O-])c2ccccc12 [Compound 19m] as the entry.
OUT: 55%
